These measurements were taken from ChEMBL document CHEMBL3988442.

target-under-test: Arginase-2, mitochondrial (Homo sapiens) (UniProt P78540)
Sequence (whole entry): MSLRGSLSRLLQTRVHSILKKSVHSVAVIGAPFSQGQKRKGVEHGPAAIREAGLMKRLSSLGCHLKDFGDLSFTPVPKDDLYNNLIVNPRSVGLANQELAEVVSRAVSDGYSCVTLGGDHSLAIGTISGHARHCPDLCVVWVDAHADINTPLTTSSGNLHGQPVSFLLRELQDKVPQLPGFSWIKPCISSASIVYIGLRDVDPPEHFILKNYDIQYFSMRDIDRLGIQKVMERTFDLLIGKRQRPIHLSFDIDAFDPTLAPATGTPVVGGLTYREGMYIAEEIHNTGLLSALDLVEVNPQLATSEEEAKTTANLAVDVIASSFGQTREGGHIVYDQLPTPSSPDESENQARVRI
procedure-details: in vitro enzyme assay to detect the production of urea directly proportional to the activity of Arginase II
Format: functional
Design: scale not given: in the data most compounds retested in dose-response had high values
condition-label: 33.3 µM
Give measured Percent Effect for each item. Keep answers brief.
Expressed in %, but write only the number.

Exercise: Give the measured Percent Effect of CCc1c(C)nc2n(c1=O)CC(C(=O)Nc1ccccc1F)CS2 (centres undefined) .
Key: -1.94

Exercise: Please give the result for Cc1ccc(CN2C[C@@H]3COC[C@H](C(=O)N4CCCCO4)[C@@H]3C2)o1 too.
Key: -1.17

Exercise: Try O=C(c1cccs1)N1CCC(O)(CN2CCc3ccccc3C2)C1 (centres undefined) next.
Key: 5.34

Exercise: Queued: CC(CNC(=O)Nc1ccc(N(C)C)nc1)Cn1cccn1 (centres undefined)
Key: 3.09

Exercise: Same question for CC(C)c1noc(C(C)N2CCN(Cc3ccsc3)CC2)n1 (centres undefined) please.
Key: 3.6

Exercise: Now consider CNc1nc(CNC(=O)Nc2cccc(F)c2C)cs1 and answer again.
Key: 1.15

Exercise: # repeat for Cc1ccc(C)c(C(NC(=O)C2CC2)c2cccnc2)c1 (centres undefined)
Key: -1.94

Exercise: Entry CNC(=O)C(C)(C)NC(=O)c1cc(OCC2CCC2)cc(C(=O)OC)c1 please
Key: 15.9

Exercise: Next compound: CCN1CC(C(=O)N2CCC(Oc3ccccc3C)CC2)CC1=O (centres undefined)
Key: 2

Exercise: Here is the next compound: CCCc1n[nH]c(C2CN(Cc3nnc(C4CC4)o3)CCO2)n1 (centres undefined)
Key: -1.9

Exercise: Entry to check: O=C(c1ccc(F)c(F)c1)N1CCCC1CN1CCCC1 (centres undefined)
Key: -3.55

Exercise: Same for Cc1cnn(CC2CN(Cc3nnc(C4CC4)o3)CCO2)c1 (centres undefined)
Key: -4.99

Exercise: Please give the result for O=C(NC1CCC1)[C@@H]1CCO[C@@H]2CCN(CCc3ccccc3)C[C@H]21 too.
Key: 14.6

Exercise: Also Cc1cc(-c2nnn(CCNS(C)(=O)=O)n2)ccc1F , if possible.
Key: 0.399

Exercise: Record: Cc1nc(N2CCN(C(=O)c3ccsc3)CC2)c2cnn(C)c2n1
Key: -6.01

Exercise: // same read-out, input: Cc1n[nH]cc1CNc1ccc2c(c1)CN(C(=O)OC(C)(C)C)CC2
Key: -8.28

Exercise: And CN(C)CCNC(=O)CNC(=O)N1CCc2c([nH]c3ccc(Cl)cc23)C1 ?
Key: -9.33

Exercise: # iterate: COc1ccc(-c2cc(C3CCCCCN3S(=O)(=O)N(C)C)on2)cc1 (centres undefined)
Key: -1.16

Exercise: And what about the compound Cc1ncccc1CNCC1CCN(CC(O)c2ccccc2)CC1 (centres undefined) ?
Key: -1.07

Exercise: Next record, please: CC(C)c1nc2n(n1)CC(NCc1nnc(C(C)C)o1)CC2 (centres undefined)
Key: -4.81

Exercise: Try O=S1(=O)COCCN1Cc1cccc(Cl)c1 next.
Key: -1.91

Exercise: Next: FC1(F)CCN(Cc2ccccn2)CC12CCN(c1cccnc1)C2 (centres undefined)
Key: 2.87

Exercise: Can you handle CCCc1nc(NCCCO)c2c(n1)c(C)nn2CC next?
Key: -9.33

Exercise: Please answer likewise for CCc1nnsc1C(=O)N1CCCN(Cc2nccn2C)CC1
Key: 0.632
